molecular target: F protein of human metapneumovirus strain JPS03-178 (type A2), on infectious virus (human metapneumovirus, strain JPS03-178 …); experiment: cell-based or functional assay
readoutKind: IC90, neutralizing activity (hMPV infection of LLC-MK2 cells; GraphPad Prism 6) (µg/mL)

{"binder": "EV046116 (antibody, human IgG1, kappa, V domains shown) VH: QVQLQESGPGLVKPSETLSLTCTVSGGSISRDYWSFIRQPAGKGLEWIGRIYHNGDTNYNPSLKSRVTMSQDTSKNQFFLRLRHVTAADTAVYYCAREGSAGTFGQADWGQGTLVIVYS VL: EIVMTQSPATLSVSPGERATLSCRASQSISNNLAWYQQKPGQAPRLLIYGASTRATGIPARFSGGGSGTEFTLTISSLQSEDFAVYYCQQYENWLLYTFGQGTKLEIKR", "result": 0.8}
{"binder": "EV046143 (antibody, human IgG1, kappa, V domains shown) VH: QVQLVQSGAEVQKPGSSVKVSCKTSGDTFNNYALSWVRQAPGQGPEWMGRIIPLVEMANYAQKFQGRVTITADKSTTTIYMELSSLRSEDTAMYYCARDGYQGGFPYFFDSWGQGTLVTVSS VL: EVVLTQSPGTLSLSPGERATLSCRASQSVSNYLAWYQQKPGQAPRLLISAASSRATGIPDRFGGSGSGADFTLTISRLEPEDFAVYYCQQYGFSPGTFGQGTKVEIRR", "result": 0.0967}
{"binder": "EV046142 (antibody, human IgG1, lambda, V domains shown) VH: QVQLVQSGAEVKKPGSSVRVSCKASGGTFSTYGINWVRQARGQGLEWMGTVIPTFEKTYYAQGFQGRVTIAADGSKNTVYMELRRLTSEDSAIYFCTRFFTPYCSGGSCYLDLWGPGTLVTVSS VL: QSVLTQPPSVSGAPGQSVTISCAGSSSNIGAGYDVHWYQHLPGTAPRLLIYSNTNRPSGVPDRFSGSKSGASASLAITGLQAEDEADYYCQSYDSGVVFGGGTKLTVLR", "result": 0.738}
